Test system: HCC1569;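 further: TDF is a line of transformed human dermal fibroblasts of mesenchymal origin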
Protocol: H1.0 immunofluorescence intensity relative to DMSO (% of DMSO); higher = stronger H1.0 induction, active = 140 or more
Test Parameters: concentration: 10 µM; 24 h
Classes used: active, inactive

{"columns": ["Compound", "Assigned Label"],
 "data": [
  ["CCOc1nc2cccc(C(=O)O)c2n1Cc1ccc(-c2ccccc2-c2nc(=O)o[nH]2)cc1", "inactive"],
  ["CS(=O)(=O)O.Cc1c(O)cccc1C(=O)NC(CSc1ccccc1)C(O)CN1CC2CCCCC2CC1C(=O)NC(C)(C)C (stereo not drawn) [Nelfinavir mesylate]", "inactive"],
  ["COc1c2c(nc3ccccc13)OC(C(C)(O)CO)C2 (stereo not drawn)", "inactive"],
  ["Cc1cc(Nc2nc(NC(C)c3ccc(F)cc3)c(C#N)cc2F)n[nH]1 (stereo not drawn)", "active"],
  ["CCCNCC(O)COc1ccccc1C(=O)CCc1ccccc1.Cl [(S)-(-)-propafenone hydrochloride]", "inactive"],
  ["CC(=O)OC1CCC2(C)C(C1)C(OC(C)=O)CC1C2CC2C3CN4CC(C)CCC4C(C)C3CCC21O (stereo not drawn)", "inactive"],
  ["COc1ccc2c(OC)c3ccoc3nc2c1OC", "inactive"],
  ["NCCCC(O)(P(=O)([O-])O)P(=O)(O)O [Alendronate]", "inactive"]
]}
